Give solubility kinetic for every item shown.
Details: buffer; pH 7.4; 200.0 µM
Numbers only, in µg/mL.

Examples from the recorded data:
Ask | Note solubility kinetic for the molecule shown: "COc1ccc2[nH]c(C(=O)NCCN3CCOCC3)cc2c1"
Reply | 31.6

Ask | Note solubility kinetic for the molecule shown: CCOC(=O)C(NC(C)=O)(NC(C)C)C(F)(F)F (stereo unspecified)
Reply | 2.2

Ask | Note solubility kinetic for the molecule shown: CCOC(=O)N1c2ccccc2C=CC1OCC (stereo unspecified)
Reply | 8

Answer for every listed entry: what is its solubility kinetic? The entries follow.
1. CCCc1cc(=O)[nH]c(SCC(=O)Nc2ccc(C)cc2)n1
2. O=C1[C@@H]2C(c3cccnc3)=NO[C@@H]2C(=O)N1c1ccc2ccccc2c1

Reply |
[3.1, 43]

Answer for every listed entry: what is its solubility kinetic? The entries follow.
1. CCN(CC)P(=O)(c1nccn1C)N(CC)CC
2. Cl.OC(COCc1ccc(Cl)cc1)CN1CCCCC1 (stereo unspecified)
3. Cc1cccc(C(=O)OCC(=O)N2CCCCCC2)c1O

Reply |
[40.7, 46.4, 36]

* * *

Conditions: buffer; pH 7.4; 200.0 µM
Where solubility kinetic equals or exceeds 30 µg/mL, the correct label is yes; where it does not, the label is no.

Completed entries (count: 6):
Ask | Can O=C1Nc2ccc(Br)cc2C1(O)c1ccc(F)cc1 (centres undefined) be said to have solubility kinetic at or above 30 µg/mL?
Reply | yes

Ask | Can O=C1CCCC2=C1C(c1cccs1)CC(=O)N2c1ccc(F)cc1 (centres undefined) be said to have solubility kinetic at or above 30 µg/mL?
Reply | yes

Ask | Can "CC(=O)c1ccccc1NC(=O)COC(=O)CCC1CCCC1" be said to have solubility kinetic at or above 30 µg/mL?
Reply | no

Ask | Can "CCCN1C(=O)C2(OCCO2)c2cc(Cl)ccc21" be said to have solubility kinetic at or above 30 µg/mL?
Reply | yes

Ask | Can "O=C(CN1C(=O)COc2ccccc21)N1CCN(C2CCCCC2)CC1" be said to have solubility kinetic at or above 30 µg/mL?
Reply | yes

Ask | Can CC1=C(C(=O)N(C)C)C(c2ccc(N3CCOCC3)cc2)NC(=O)N1 (centres undefined) be said to have solubility kinetic at or above 30 µg/mL?
Reply | yes

***
Ask | Can "c1ccc(CSc2nc3ccccc3[nH]2)cc1" be said to have solubility kinetic at or above 30 µg/mL?
Reply | no

Ask | Can "COc1ccc(N2CCN(CC(=O)c3ccc(Cl)cc3)CC2)cc1" be said to have solubility kinetic at or above 30 µg/mL?
Reply | yes

Ask | Can "Cc1occc1C(=O)Nc1cccc(Cl)c1Cl" be said to have solubility kinetic at or above 30 µg/mL?
Reply | no

Ask | Can "CN(C)c1ccc2c3c(ccc(N(C)C)c13)C(=O)OC2" be said to have solubility kinetic at or above 30 µg/mL?
Reply | yes

Ask | Can "CCC(=NCCN1CCOCC1)c1c(O)n(C2CCCCC2)c(=O)[nH]c1=O" be said to have solubility kinetic at or above 30 µg/mL?
Reply | yes

Ask | Can "COc1cc(/C=C/C(=O)OCC(=O)NCCCc2ccccc2)cc(OC)c1OC" be said to have solubility kinetic at or above 30 µg/mL?
Reply | no

Ask | Can "O=C(Nc1ccc(Cl)cc1Cl)N1CCN(c2ncccn2)CC1" be said to have solubility kinetic at or above 30 µg/mL?
Reply | yes

Reference source for all entries: PubChem BioAssay AID1996
